Below is a list of entries, each paired with its recorded pIC50 value.
# STUDY_SYSTEM: TAK1-TAB1 fusion protein (Homo sapiens)
# Construct: purchased Carna
# Sequence (O43318 with tags, fused parts or gaps limits assumed): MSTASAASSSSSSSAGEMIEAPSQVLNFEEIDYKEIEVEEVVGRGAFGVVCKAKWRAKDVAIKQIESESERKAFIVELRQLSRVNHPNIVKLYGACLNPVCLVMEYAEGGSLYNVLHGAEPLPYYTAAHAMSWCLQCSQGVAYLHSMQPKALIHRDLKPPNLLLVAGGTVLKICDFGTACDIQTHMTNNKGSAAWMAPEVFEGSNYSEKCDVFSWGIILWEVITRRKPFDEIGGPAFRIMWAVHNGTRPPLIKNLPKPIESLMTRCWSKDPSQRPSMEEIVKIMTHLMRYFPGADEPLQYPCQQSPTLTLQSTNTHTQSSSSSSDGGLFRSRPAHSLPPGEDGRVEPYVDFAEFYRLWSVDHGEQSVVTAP
# ASSAY_NOTES: TAK1 biochemical assay (AlphaScreen, GST-MAP2K7 substrate)
# COND: TAK1-TAB1 fusion protein, GST-MAP2K7 substrate; read-out: mean TAK1 IC50 (Col. A)
pIC50: −log10 of the molar value. Structures can show the parent of a compound that is named as a salt.

Look over these answered cases.
Q) Which pIC50 reading was recorded for the molecule CC(=O)N1CCC(n2cc(-c3cnc(N)c4oc(-c5ccc(N)c(C#N)c5)cc34)cn2)CC1 [Example 104] ?
A) 5.00 to 6.00

Q) Try the molecule CC(=O)N1CCC(n2cc(-c3cnc(N)c4oc(-c5ccsc5)cc34)cn2)CC1 [Example 174]
A) 6.00 to 7.00

Q) // same read-out, input: CC(=O)N1CCC(n2cc(-c3cnc(N)c4oc(-c5cccc(OCc6ccccn6)c5)cc34)cn2)CC1 [Example 199]
A) 5.00 to 6.00

Q) Now the same for Nc1ncc(-c2cnn([C@H]3CC[C@H](O)CC3)c2)c2cc(-c3cccc4sncc34)oc12 [Example 242, Diformate Salt]
A) > 7.00

Q) Please do the same for Nc1ncc(-c2cnn([C@H]3CC[C@H](O)C3)c2)c2cc(-c3csc4cnccc34)oc12 [Example 307] as well.
A) > 7.00

Next:
Q) Give the measured pIC50 of COc1cc(-c2cc3c(-c4cnn(C5CCN(C(C)=O)CC5)c4)cnc(N)c3o2)ccc1O [Example 131] .
A) 6.00 to 7.00

Q) Next: CC(=O)N1CCC(n2cc(-c3cnc(N)c4oc(-c5ccc6c(c5)CNC6=O)cc34)cn2)CC1 [Example 98]
A) < 5.00

Q) Next entry: COC(=O)c1cc(-c2cnc(N)c3oc(-c4csc5cnccc45)cc23)cn1C [Example 398]
A) 5.00 to 6.00

Q) Moving on to the next molecule: CC(=O)N1CCC(n2cc(-c3cnc(N)c4oc(-c5cccc(OCc6cccnc6)c5)cc34)cn2)CC1 [Example 202]
A) 5.00 to 6.00

Q) Would you kindly repeat that for CC(=O)N1CCC(n2cc(-c3cnc(N)c4oc(-c5ccc(-c6ccn[nH]6)cc5)cc34)cn2)CC1 [Example 128] ?
A) 5.00 to 6.00

Q) Again, but for CN1[C@@H]2CC[C@H]1C[C@H](n1cc(-c3cnc(N)c4oc(-c5csc6cnccc56)cc34)cn1)C2 [Example 328]
A) > 7.00

Q) Another: Nc1cc(-c2cc3c(-c4cnn(C5CCNCC5)c4)cnc(N)c3o2)cnc1Cl [Example 43]
A) 6.00 to 7.00

Q) Continue with CC(=O)Nc1ccc(-c2cc3c(-c4cnn(C5CCN(C(C)=O)CC5)c4)cnc(N)c3o2)cn1 [Example 126]
A) 5.00 to 6.00

Q) Same again, this time with CS(=O)(=O)CCN1CCC(n2cc(-c3cnc(N)c4oc(-c5cccc6cnccc56)cc34)cn2)CC1 [Example 82]
A) 6.00 to 7.00

Q) # iterate: Nc1ncc(-c2cc[nH]c2)c2cc(-c3csc4cnccc34)oc12 [Example 376]
A) 5.00 to 6.00

Q) // next record CC(=O)N1CCC(n2cc(-c3cnc(N)c4oc(-c5cccc(OCCC(C)C)c5)cc34)cn2)CC1 [Example 208]
A) < 5.00

Q) Now consider CC(=O)N1CCC(n2cc(-c3cnc(N)c4oc(-c5ccc(C(=O)N(C)C)cc5)cc34)cn2)CC1 [Example 125] and answer again.
A) < 5.00

Q) Input Cn1cc(-c2cnc(N)c3oc(-c4csc5cnccc45)cc23)c(C#N)n1 [Example 345]
A) < 5.00

Q) For CC(=O)N1CCC(n2cc(-c3cnc(N)c4oc(-c5cccc6c5cnn6C)cc34)cn2)CC1 [Example 214] then?
A) 6.00 to 7.00
